Ref: ChEMBL document CHEMBL2146390

experiment: Cmax in C57B16/J mouse at 30 mg/kg, po; assay type: ADME, organism-based; design: dose 30 mg/kg, route oral; conditions: in vivo
measurement kind: Cmax

Query: Entry O=C(O)c1cc(O)cc(Cl)c1 : reported Cmax = ?
Reply: 67.2 µM

====

assay: Half life in C57B16/J mouse at 30 mg/kg, po; format: ADME, organism-based; set-up: dose 30 mg/kg, route oral; conditions: in vivo
measurement kind: half-life (h)
The reply should be a number in h, with the unit left off.

Query: Entry O=C(O)c1cc(O)cc(Cl)c1 : reported half-life = ?
Reply: 1.47

====

assay: Half life in C57B16/J mouse at 100 mg/kg, po; type: ADME, organism-based; design: dose 100 mg/kg, route oral; conditions: in vivo
measurement kind: half-life (h)
The reply should be a number in h, with the unit left off.

Query: Entry O=C(O)c1cc(O)cc(Cl)c1 : reported half-life = ?
Reply: 1.1
